- Read-out: Insulin Like Growth Factor 1 (IGF1), IGF1 (gene 3479)
- test_name: LTEA_HepaRG_IGF1: Life Technologies and Expression Analysis (LTEA) Assay for Insulin Like Growth Factor 1 (IGF1) using HepaRG (AID 2283506)
- assay_context: mRNA level, 48 h; actives raise or lower the signal
- Description: LTEA_HepaRG is a cell based, multiplexed-readout assay that uses HepaRG, a human liver cell line, with measurements taken at 48 hours after chemical dosing on a 96-well plate.LTEA_HepaRG_IGF1 is one of 102 assay component(s) measured in the LTEA HepaRG cell culture assay. It is a marker of Cell proliferation, survival, death.Data from the assay component LTEA_HepaRG_IGF1 was analyzed into 1 endpoint. […]
Active and inactive are the calls of the source. Rule for the calls: active = hit-call score of the fitted dose curve at least 0.9, where 1 is the maximum; inactive = score below 0.9.
Outcomes you can answer with include only these: TRUE for active, FALSE for inactive

Just curious, what result did C=CCc1cc(S(=O)(=O)c2ccc(O)c(CC=C)c2)ccc1O get here?
TRUE

Just curious, what result did CC(C)CC(C)O (centres undefined) get here?
FALSE

Just curious, what result did CCN(CC)C(=S)SSC(=S)N(CC)CC get here?
FALSE

Just curious, what result did CCCCCCCCN(C)C get here?
FALSE

Every entry's value here was drawn from PubChem BioAssay (EPA / NIEHS).
